Answer each item with its documented IC50.
Tested on: MCF7
Assay: Antiproliferative activity against human MCF7 cells incubated for 72 hrs by MTT assay
Assay type: functional, cell-based
Settings: MCF7, 72 h

>>> result("CC1(C)[C@@H](OC(=O)CN)CC[C@]2(C)[C@H]3C(=O)C=C4[C@@H]5C[C@@](C)(C(=O)OCc6ccccc6)CC[C@]5(C)CC[C@@]4(C)[C@]3(C)CC[C@@H]12")
"3.81 µM"
>>> result("CC(C)C[C@H](NC(=O)OC(C)(C)C)C(=O)N[C@H]1CC[C@]2(C)[C@H]3C(=O)C=C4[C@@H]5C[C@@](C)(C(=O)OCc6ccccc6)CC[C@]5(C)CC[C@@]4(C)[C@]3(C)CC[C@H]2C1(C)C")
"> 40 µM"
>>> result("CC(C)(C)OC(=O)NCC(=O)N[C@H]1CC[C@]2(C)[C@H]3C(=O)C=C4[C@@H]5C[C@@](C)(C(=O)OCc6ccccc6)CC[C@]5(C)CC[C@@]4(C)[C@]3(C)CC[C@H]2C1(C)C")
"> 40 µM"
>>> result("CC1(C)[C@@H](OC(=O)[C@@H](N)Cc2ccccc2)CC[C@]2(C)[C@H]3C(=O)C=C4[C@@H]5C[C@@](C)(C(=O)OCc6ccccc6)CC[C@]5(C)CC[C@@]4(C)[C@]3(C)CC[C@@H]12")
"14.4 µM"
>>> result("CC(C)C[C@H](NC(=O)OC(C)(C)C)C(=O)O[C@H]1CC[C@]2(C)[C@H]3C(=O)C=C4[C@@H]5C[C@@](C)(C(=O)OCc6ccccc6)CC[C@]5(C)CC[C@@]4(C)[C@]3(C)CC[C@H]2C1(C)C")
"> 40 µM"

Measured IC50, "CC(C)(C)OC(=O)NCC(=O)O[C@H]1CC[C@]2(C)[C@H]3C(=O)C=C4[C@@H]5C[C@@](C)(C(=O)OCc6ccccc6)CC[C@]5(C)CC[C@@]4(C)[C@]3(C)CC[C@H]2C1(C)C" : > 40 µM
